- assayed target: aphid c-Jun NH2-terminal kinase (Aphis gossypii, UniProt A0A9P0JGV4)
- Sequence (A0A9P0JGV4 entry or part of it): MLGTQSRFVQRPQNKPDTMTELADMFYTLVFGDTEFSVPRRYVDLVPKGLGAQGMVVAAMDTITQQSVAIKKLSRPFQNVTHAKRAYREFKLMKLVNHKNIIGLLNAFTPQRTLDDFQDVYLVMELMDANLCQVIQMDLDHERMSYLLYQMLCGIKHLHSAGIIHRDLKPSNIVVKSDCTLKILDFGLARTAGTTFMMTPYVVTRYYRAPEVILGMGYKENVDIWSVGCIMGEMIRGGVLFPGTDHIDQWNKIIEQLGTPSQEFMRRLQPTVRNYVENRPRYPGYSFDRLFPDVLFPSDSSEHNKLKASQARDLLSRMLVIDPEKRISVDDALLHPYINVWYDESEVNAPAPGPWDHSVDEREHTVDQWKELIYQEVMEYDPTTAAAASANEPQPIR
- assay comment: In vitro aphid c-Jun NH2-terminal kinase activity measurement (IMAP fluorescence polarization, peptide substrate)
- Format: biochemical, cotton aphid (Aphis gossypii)
- reported conditions: concentrations 100 μM to 0.03 μM, XLfit; read-out: Activity of inhibiting c-Jun NH2-terminal kinase activity (IC50, (μM))
measurement type: IC50

OCC1OC(n2cnc3c(O)ncnc32)C(O)C1O (centres unmarked)
> 100 µM

Challenge: Please report the recorded IC50 for O=C1CC2(Oc3ccccc3O2)C(=O)O1 .
Response given: > 100 µM

Challenge: Now this one: Sc1ncnc2nc[nH]c12
Response given: > 100 µM

Challenge: Now this one: COc1ccc(C(=O)c2ccccc2)c(O)c1
Response given: > 100 µM

Challenge: Now this one: CCOC(=O)/C(=C(/F)SCC(C)=O)C(F)(F)F
Response given: 47.9 µM
